Molecular target: Neu5Ac(a2-8)Neu5Ac(a2-3)Gal(b1-3)GalNAc(b1-4)[Neu5Ac(a2-3)]Gal(b1-4)Glc
Test: glycan array binding signal (z-score within array); higher = stronger binding
Settings: glycan notation: IUPAC condensed, linker removed
The sample as a whole holds a higher share of the strongest signals than the screen did.
ASSAY_READOUT: glycan array binding signal (z-score)

INSERT INTO measurements (binder, value_measured) VALUES
  ('Banana lectin (Musa acuminata) (protein) MNGAIKVGAWGGNGGSAFDMGPAYRIISVKIFSGDVVDGVDVTFTYYGKTETRHYGGSGGTPHEIVLQEGEYLVGMAGEVANYHGAVVLGKLGFSTNKKAYGPFGNTGGTPFSLPIAAGKISGFFGRGGKFLDAIGVYLEPLEHHHHHH', -0.192),
  ('GNA (Galanthus nivalis), P30617 (protein) MAKASLLILAAIFLGVITPSCLSDNILYSGETLSTGEFLNYGSFVFIMQEDCNLVLYDVDKPIWATNTGGLSRSCFLSMQTDGNLVVYNPSNKPIWASNTGGQNGNYVCILQKDRNVVIYGTDRWATGTHTGLVGIPASPPSEKYPTAGKIKLVTAK', -0.169),
  ('PhypaEULS3 (Physcomitrella patens) (protein) MLPVRLHCKADPNFNLAAVPGQGPVMVPFSPNDDFQVWYKDVTMSTRVKDETGSSAFSLINKATGQALRHAPEDLAQCLLADYDSNALDQTVLWTMSEDMGQGYCCIRLASQITRNLDVFRGDKKSGGVKEGSPVITFAWKKQDNQIWKMITAILEQKLISEEDLNSAVDHHHHHH', -0.561);

Entry source: the supplement of paper PMC8728848
